Data origin: the Kinase Knowledgebase extract (Sharma et al. 2016)

Recorded below: IC50, system UniProt P48736.
Sequence (P48736 whole entry, looked up): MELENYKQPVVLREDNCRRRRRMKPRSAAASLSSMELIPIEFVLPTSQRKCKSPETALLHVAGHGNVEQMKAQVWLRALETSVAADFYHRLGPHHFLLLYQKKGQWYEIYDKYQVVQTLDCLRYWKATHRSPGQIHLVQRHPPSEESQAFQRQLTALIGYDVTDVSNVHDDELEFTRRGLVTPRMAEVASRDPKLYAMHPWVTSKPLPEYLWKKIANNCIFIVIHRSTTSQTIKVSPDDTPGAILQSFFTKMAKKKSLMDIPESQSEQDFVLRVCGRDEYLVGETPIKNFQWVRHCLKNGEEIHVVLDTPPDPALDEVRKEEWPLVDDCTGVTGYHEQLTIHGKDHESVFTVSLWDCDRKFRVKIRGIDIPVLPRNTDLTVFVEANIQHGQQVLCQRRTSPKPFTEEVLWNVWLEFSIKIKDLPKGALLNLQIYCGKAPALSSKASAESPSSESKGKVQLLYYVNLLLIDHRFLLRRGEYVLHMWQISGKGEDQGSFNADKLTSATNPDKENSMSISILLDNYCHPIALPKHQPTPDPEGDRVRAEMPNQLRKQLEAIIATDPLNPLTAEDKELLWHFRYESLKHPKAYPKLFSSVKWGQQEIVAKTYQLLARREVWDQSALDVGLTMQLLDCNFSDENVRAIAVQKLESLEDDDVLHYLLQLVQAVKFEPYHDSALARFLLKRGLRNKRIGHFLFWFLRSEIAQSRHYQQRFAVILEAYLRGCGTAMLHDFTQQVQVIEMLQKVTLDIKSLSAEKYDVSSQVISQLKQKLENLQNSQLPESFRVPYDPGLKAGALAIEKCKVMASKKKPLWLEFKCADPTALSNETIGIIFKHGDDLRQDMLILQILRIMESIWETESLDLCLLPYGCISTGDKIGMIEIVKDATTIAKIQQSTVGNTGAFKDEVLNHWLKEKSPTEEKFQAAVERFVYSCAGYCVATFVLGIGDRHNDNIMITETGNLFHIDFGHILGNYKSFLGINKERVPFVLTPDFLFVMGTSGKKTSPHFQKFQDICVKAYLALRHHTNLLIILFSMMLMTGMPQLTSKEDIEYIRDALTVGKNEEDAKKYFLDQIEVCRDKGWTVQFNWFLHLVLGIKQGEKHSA

Would you please look over these solved cases?
compound: Cc1cccc2cc(Cn3nc(-c4cn[nH]c4)c4c(N)ncnc43)n(-c3ccccc3C(C)C)c(=O)c12
IC50: < 100 nM
//
compound: Cc1cccc2cc(Cn3nc(-c4ccc(F)c(O)c4)c4c(N)ncnc43)n(C(C)C)c(=O)c12
IC50: < 100 nM

Please give IC50, item by item, for the list that follows.
1. Cc1ccccc1-n1c(Cn2nc(C)c3c(N)ncnc32)nc2scc(C)c2c1=O
2. COc1ccccc1-n1c(Cn2nc(-c3cc(O)cc(F)c3)c3c(N)ncnc32)cc2cccc(C)c2c1=O

Out:
1: < 100 nM; 2: < 100 nM

Please give IC50, item by item, for the list that follows.
1. Cc1ccccc1-n1c(Cn2nc(-c3ccc4cc[nH]c4c3)c3c(N)ncnc32)nc2scc(C)c2c1=O
2. CNC(=O)Nc1nc2ccc(-c3nn(Cc4cc5cccc(C)c5c(=O)n4-c4ccccc4C)c4ncnc(N)c34)cc2s1

Out:
1: < 100 nM; 2: < 100 nM
